Test: In vitro inhibitory activity against neuraminidase
Set-up: species or system unidentified influenza virus
Can you tell me pIC50 for the items I'm about to list?
The scale used: pIC50 is minus the common logarithm of the concentration in molar units.

Need pIC50 of CCCN(CCc1ccccc1)C(=O)[C@@H]1OC(C(=O)O)=C[C@H](N)[C@H]1NC(C)=O , thanks.
5.44

Entry to check: CC(=O)Nc1c(O)cc(C(=O)O)cc1[N+](=O)[O-]
3.12

====

Provide the reported Ki of each item.
Assay: In vitro inhibitory activity against neuraminidase
Parameters: species or system unidentified influenza virus
I only need the number, in µM, no unit after it.

Query (compound): CC(=O)N[C@H]1[C@H]([C@H](O)[C@H](O)CO)OC(C(=O)O)=C[C@@H]1N ; field requested: Ki
0.04

What do you have for CC(=O)N[C@H]1[C@H]([C@H](O)[C@H](O)CN)OC(C(=O)O)=C[C@@H]1O ?
400

What do you have for CC(=O)N[C@H]1[C@H]([C@H](O)[C@H](O)CO)OC(C(=O)O)=C[C@@H]1O [NEU5AC2EN] ?
4

Let us now turn to CC(=O)N[C@H]1[C@H]([C@H](O)[C@H](O)CN)OC(C(=O)O)=C[C@@H]1N
15
